Conditions: buffer; pH 7.4; 200.0 µM
Categories are defined by ranges of solubility kinetic, namely lowest: < 10 µg/mL; middle: ≥ 10 µg/mL and < 30 µg/mL; highest: ≥ 30 µg/mL

>  <molecule>
Cc1ccc(-c2nc(N)s[n+]2-c2ccccc2)cc1.[Br-]

>  <cat>
middle

$$$$

Categorize the following entry: CCc1cc(C(=O)N2CCCc3ccccc32)sc1C
lowest

Categorize the following entry: COc1ccc(C2CC3(O)CC(C#N)(C(=O)N3)C2(C#N)C#N)cc1 (stereo unspecified)
highest

Categorize the following entry: COc1ccc(CN(C#N)c2nc(C)cc(C)n2)cc1
highest

Categorize the following entry: CSc1cccc(NC(=O)COC(=O)C2(c3ccccc3)CC2)c1
middle

Categorize the following entry: COc1ccc(C2OCC3(CO2)SC(=O)NC3=O)cc1OC (stereo unspecified)
highest

----------
Each record here notes measured solubility kinetic.
Conditions: buffer; pH 7.4; 200.0 µM
I only need the number, in µg/mL, no unit after it.

Worked set:
>  <compound>
O=C(c1ccsc1)N1CCCC(Nc2ccc(F)c(F)c2)C1 (stereo unspecified)

>  <observed_value>
44.5

$$$$
>  <compound>
O=C(Nc1nccs1)[C@@H]1CCCN1C(=O)c1cccs1

>  <observed_value>
30.6

$$$$
>  <compound>
C=CCNc1nc(Cl)nc(Nc2ccccc2)n1

>  <observed_value>
2.2

$$$$

API: the following record is the query input.
Param item = COc1ccc(N(C(=O)c2ccncc2)S(=O)(=O)c2ccc(F)cc2)cc1 ; retrieve measured solubility kinetic.
50.9

----------
Each record here notes measured solubility kinetic.
Settings: buffer; pH 7.4; 200.0 µM
I only need the number, in µg/mL, no unit after it.

>  <compound>
Cc1ccccc1OCC(=O)OCC(=O)N1CCc2ccccc21

>  <observed_value>
1.8

$$$$

Param item = CN1CCN(c2nc(-c3ccc(Cl)cc3)cc(=O)[nH]2)CC1 ; retrieve measured solubility kinetic.
39.8

Param item = O=C(O)CCC(=O)Nc1cc(C(F)(F)F)cc(C(F)(F)F)c1 ; retrieve measured solubility kinetic.
43.6

Param item = COc1ccc(C(=O)NCC2OCCc3ccccc32)cc1OC (stereo not drawn) ; retrieve measured solubility kinetic.
11.8

Param item = O=C(COC(=O)c1ccc(S(=O)(=O)NCc2ccco2)cc1)NCc1ccccc1 ; retrieve measured solubility kinetic.
7.4

----------
Conditions: buffer; pH 7.4; 200.0 µM
Quick rule: solubility kinetic of at least 10 µg/mL means 1 (yes), below that means 0 (no).

>  <compound>
Cc1cc(C)n2nc(SCc3ccc(C#N)cc3)nc2n1

>  <cat>
1 (yes)

$$$$
>  <compound>
CC1=Nc2cccc([N+](=O)[O-])c2NC(=O)C1

>  <cat>
1 (yes)

$$$$
>  <compound>
O=C(Nc1scc(-c2ccccc2)c1C(=O)O)c1ccccc1F

>  <cat>
1 (yes)

$$$$
>  <compound>
NS(=O)(=O)c1ccc(NC(=S)NC(=O)C2CCCC2)cc1

>  <cat>
1 (yes)

$$$$
>  <compound>
CC(C)c1ccccc1OCCCCN1CCCCC1

>  <cat>
1 (yes)

$$$$
>  <compound>
COCCOc1cc(COC)nc(-c2cccc(C)c2)n1

>  <cat>
1 (yes)

$$$$

Item c1ccc2c(c1)COC(CNC1CCCCC1)OC2 with solubility kinetic of 10 µg/mL or above?
1 (yes)

Item COc1ccc(NC(C)=O)cc1CNC(=O)CN1CCOCC1 with solubility kinetic of 10 µg/mL or above?
1 (yes)

Item COc1ccc(OC)c(N/C(=N/c2nc(C)cc(C)n2)NC(C)=O)c1 with solubility kinetic of 10 µg/mL or above?
0 (no)

Item CCOC(=O)C1CCCN(Cc2cccc(Oc3ccccc3)c2)C1 (stereo not given) with solubility kinetic of 10 µg/mL or above?
0 (no)

Item O=C1CNC(=S)N1Cc1ccccc1Cl with solubility kinetic of 10 µg/mL or above?
1 (yes)

Item CN1CCN(c2cc3c(cc2F)c(=O)c(C(=O)O)cn3CCF)CC1 with solubility kinetic of 10 µg/mL or above?
1 (yes)

----------
Conditions: buffer; pH 7.4; 200.0 µM
Each record here notes measured solubility kinetic.
I only need the number, in µg/mL, no unit after it.

>  <cpd_smiles>
CC(C)N(CC(N)=O)c1ncnc2sc(-c3ccccc3)cc12

>  <measurement_unit>
µg/mL

>  <solubility kinetic>
10.4

$$$$
>  <cpd_smiles>
Clc1nc(-c2ccccc2)c2ccccc2n1

>  <measurement_unit>
µg/mL

>  <solubility kinetic>
17.6

$$$$
>  <cpd_smiles>
Nc1nc(-c2cc(-c3ccccc3)no2)cs1

>  <measurement_unit>
µg/mL

>  <solubility kinetic>
4.4

$$$$
>  <cpd_smiles>
COc1ccc([N+](=O)[O-])c(OC)c1C(=O)NC(=O)Nc1nc(C)cc(C)n1

>  <measurement_unit>
µg/mL

>  <solubility kinetic>
43.6

$$$$
>  <cpd_smiles>
CCc1c(C(=O)Nc2ccc(C)c(C)c2)[nH]c(C)c1C(C)=O

>  <measurement_unit>
µg/mL

>  <solubility kinetic>
3

$$$$

API: the following record is the query input.
Param item = CC(=O)Oc1ccc(-c2nc3cc(Cl)ccc3c(=O)o2)cc1 ; retrieve measured solubility kinetic.
1.7

----------
Conditions: buffer; pH 7.4; 200.0 µM
Each record here notes measured log10 solubility kinetic.
Recorded solubility kinetic (log10, µg/mL)

>  <compound>
Br.CC(=O)c1cccc(Nc2nc(-c3ccccc3)cs2)c1

>  <log10 solubility kinetic>
0.32

$$$$
>  <compound>
CCN(CC)c1ccc(S(=O)(=O)N2CCOCC2)cc1NC(=O)Nc1ccccc1

>  <log10 solubility kinetic>
0.34

$$$$
>  <compound>
Cc1[nH]c(C)c(C(=O)/C=C/c2ccc([N+](=O)[O-])cc2)c1C

>  <log10 solubility kinetic>
0.46

$$$$
>  <compound>
Cc1c(C(=O)c2ccccc2)c2ccccn2c1CCc1ccccn1

>  <log10 solubility kinetic>
0.57

$$$$
>  <compound>
Cc1cc(OC(C)C(=O)NCC2CCCO2)cc(C)c1Cl (centres undefined)

>  <log10 solubility kinetic>
1.61

$$$$

Param item = O=C(Nc1ccccc1)c1cccc(C(=O)Nc2ccccc2)n1 ; retrieve measured log10 solubility kinetic.
-0.52

Param item = CC1CC(C)CN(C(=O)C(C)N2CCN(S(=O)(=O)c3ccccc3F)CC2)C1 (centres undefined) ; retrieve measured log10 solubility kinetic.
1.71

Param item = COc1ccc(/C(N)=N/OC(=O)CC2CCCCC2)cc1 ; retrieve measured log10 solubility kinetic.
0.45

Param item = CC(C)=CC(=O)Nc1ccc(S(=O)(=O)Nc2ccccn2)cc1 ; retrieve measured log10 solubility kinetic.
1.66

Param item = CC(=O)c1cccc(NC(=S)NC(=O)c2ccccc2C)c1 ; retrieve measured log10 solubility kinetic.
0.00

Param item = O=C(CN1CCN(c2ccccn2)CC1)Nc1ccccc1F ; retrieve measured log10 solubility kinetic.
1.63

Param item = S=C(NCC1COc2ccccc2O1)Nc1ccccc1 (centres undefined) ; retrieve measured log10 solubility kinetic.
0.81

Param item = COc1ccc(O)c(C(=O)c2cnc3c(c2)CN(C)C(=O)N3)c1 ; retrieve measured log10 solubility kinetic.
0.90

Param item = O=C(NCc1nc(-c2ccc(C(F)(F)F)cc2)no1)Nc1ccc(F)cc1F ; retrieve measured log10 solubility kinetic.
0.04

Param item = CSc1ccc(CNC(=O)c2c(C)noc2C)s1 ; retrieve measured log10 solubility kinetic.
1.60

----------
Details: buffer; pH 7.4; 200.0 µM
Each record here notes measured solubility kinetic.
I only need the number, in µg/mL, no unit after it.

>  <compound>
COc1ccc(NC(=S)/N=C(\N)Nc2nc(C)c3ccccc3n2)cc1

>  <observed_value>
0.7

$$$$
>  <compound>
CC(C)CCN1CCC(N)=NC1=O

>  <observed_value>
26.8

$$$$
>  <compound>
CC(CCN1CCN(c2ccccc2)CC1)c1ccccc1.Cl (stereo unspecified)

>  <observed_value>
29.7

$$$$
>  <compound>
Cc1cc(NC(=O)C(Cl)(Cl)Cl)no1

>  <observed_value>
35.7

$$$$
>  <compound>
O=C(CCCOc1ccc(Cl)cc1Cl)Nc1ncccn1

>  <observed_value>
7.7

$$$$

Param item = N#CN=C(c1ccccc1)c1ccccc1 ; retrieve measured solubility kinetic.
30.4

Param item = Cc1ccc(-c2cc(=O)[nH]c(NCc3ccccc3)n2)cc1 ; retrieve measured solubility kinetic.
0.3

Param item = NC(=O)Cn1cc(C=C2C(=O)NC(=O)NC2=O)c2ccccc21 ; retrieve measured solubility kinetic.
11.3

Param item = COc1ccc(Cl)cc1NC(=O)C(C)N1CCc2ccccc21 (stereo unspecified) ; retrieve measured solubility kinetic.
1.1

Param item = COc1ccc(OC)c(NC(=O)COC(=O)Cc2ccsc2)c1 ; retrieve measured solubility kinetic.
36.2

Param item = Cl.c1cc(CNC2C3CC4CC(C3)CC2C4)ccn1 (stereo unspecified) ; retrieve measured solubility kinetic.
33.7

Param item = O=C(CCOc1ccccc1)Nc1ccccc1F ; retrieve measured solubility kinetic.
37.4

Param item = CC1=NOC(=O)/C1=C\c1ccccc1 ; retrieve measured solubility kinetic.
24.4

Param item = COc1cccc(CN(C)C(=S)Nc2cccc(C)c2)c1 ; retrieve measured solubility kinetic.
40.4

Param item = CCN(c1ccccc1)S(=O)(=O)c1ccc(C(=O)Nc2ccccc2OC)cc1 ; retrieve measured solubility kinetic.
3.7
